quantity-kind: melting point

• CCCCCCCCC1C=CC(C(=O)c2ccc(C(=O)O)o2)=C2N=C3CCCCC3=C21 (stereo not given) = 140 to 142 °C
• CCN(CC)C(=O)n1ccc(S(=O)(=O)c2ccc(Br)c(C)c2)n1 = 75 to 77 °C
• CCOC(=O)c1c(CN2CCOCC2)nc2cc(OC)c(OC)cc2c1-c1ccc(OC)cc1 = 165 to 166 °C
• COC(=O)c1ccc(OCc2ccc(Cl)cc2)cc1OCc1ccccc1 = 99 to 101 °C
• CSc1cc2c(cc1C(F)(F)F)N(C(=O)Nc1cccc(C(=O)NC3CCN(Cc4ccccc4)C3)c1)CC2 (stereo not given) = 174 to 175 °C
• Cc1coc(-c2ccc3c(c2)c2cc(-c4ccc(Cl)cc4Cl)c(=O)n(C)c2n3C)n1 = 258 to 261 °C
• Cc1nc(C)c(Cl)c(NCc2ccc(O)c(OC(F)F)c2)n1 = 167 to 168 °C
• O=C(Nc1ccc(OC(F)(F)F)cc1)N1CC(c2sncc2C(F)(F)F)C(c2ccc(Cl)cc2)=N1 (stereo not given) = 101 to 104 °C
• COC(=N)c1cc(Oc2ccc(C(F)(F)F)cc2Cl)ccc1[N+](=O)[O-] = 46 °C
• COCCOC(=O)CCc1cc(C(C)(C)C)c(O)c(C(C)(C)C)c1 = 62 to 64 °C
• CCOC(=O)CCCCCCCCCCCNC(=O)c1cc(OCc2ccccc2)ccc1OCc1ccccc1 = 70 to 71 °C
• COc1ccc(-c2ncc(Cl)nc2-c2ccc(OC)cc2)cc1 = 126 to 127 °C
• CNC(=O)ON=C(C(=O)N(C)C)C(C)=NOC = 172 to 173 °C
• Cn1c(C2CC2)nc2c(O[C@@H]3c4ccccc4C[C@H]3O)cc(C(=O)O)cc21 (relative stereo) = 132 to 134 °C
• Cc1ccc(COc2ccc(C(=O)NC[C@@H](C(=O)NO)N3CCCCC3)cc2)c2ccccc12 = 123 °C
• COC(=O)c1c(Sc2ccc(OC)cc2)nc(-c2ccccc2)n1Cc1cc2c(cc1Cl)OCO2 = 161 °C
• Nc1nc(=O)n(C(=O)OCc2ccccc2)cc1F = 212 to 215 °C
• Cc1ccc(C)c(-c2cn(C)cc(-c3cccc(C(F)(F)F)c3)c2=O)c1 = 165 to 167 °C
• O=Cc1cc(C(=O)CCl)c[nH]1 = 178 to 179 °C
• NC(=O)CN1CC[C@H](OCc2cc(C(F)(F)F)cc(C(F)(F)F)c2)[C@H](c2ccccc2)C1 (relative stereo) = 123 to 125 °C
• O=C(O)c1ccn(-c2ccc(C(=O)O)c(Cl)c2)n1 = 260 to 263 °C
• CCCCCCCCCCCC(=O)NNC(=O)c1ccccc1O = 158 °C
• O=C(O)c1cc(F)cc(C(F)(F)F)c1O = 76 to 83 °C
• COc1ccc2nc3cc(C(=O)O)ccn3c(=O)c2c1 = 323 to 327 °C
• CSc1ncc2cc(-c3c(Cl)cccc3Cl)c(=N)n(C)c2n1 = 198 to 200 °C
• COc1ccccc1CC(O)(Cc1cccs1)C(C)(C)C (stereo not given) = 74 to 75 °C
• Fc1cccc(Cc2cncnc2N2CCCC2)c1 = 51 to 54 °C
• CCC12CCC(=O)C=C1c1c(cc(OCC#N)c(Cl)c1Cl)C2 (stereo not given) = 171 to 172 °C
• CCc1ccc(Cc2cc(C(=O)OC)ccc2O)cc1 = 134 to 137 °C
• O=C(Nc1cccnc1)N1CCN(c2nc(-c3ccccc3)cs2)CC1 = 74 to 75 °C
• CC(=O)SCCC(=O)N1[C@@H](c2ccccc2O)SC[C@H]1C(=O)N(c1ccccc1)[C@@H](C)C(=O)O = 91 to 95 °C
• CC(C)(c1ccc(OP(=O)(c2ccccc2)c2ccccc2)cc1)c1ccc(OP(=O)(c2ccccc2)c2ccccc2)cc1 = 71 to 72 °C
• NCc1nc2ccccc2[nH]1 = 81 to 83 °C
• O=C(Nc1ccc2ccc(Cl)nc2n1)c1ccccn1 = 319 °C
• CC(C)c1cc(C(C)C)c(C=CC(=O)c2ccc(C(C)C)c(OS(N)(=O)=O)c2C(C)C)c(C(C)C)c1 = 144 to 148 °C
• COC(=O)c1ccc(OC(=C(Oc2ccc(C(=O)OC)cc2)C(F)(F)F)C(F)(F)F)cc1 = 123 °C
• CCOC(=O)c1ccc(OCCN2CCN(c3ccc(I)nn3)CC2)cc1 = 123 °C
• O=c1oc2cc(O)ccc2c2c1CCCCC2 = 189 to 190 °C
• O=C1c2ccccc2C(=O)N1c1cccc(Br)c1 = 176 to 179 °C
• CN(C)c1ccc(C(=O)Nc2cn3cc(-n4ccnc4)ccc3n2)cc1 = 247 to 248 °C
